molecular target: ROCK2 (Homo sapiens, UniProt O75116); construct: purchased DiscoverX (KINOMEscan KdELECT service); host or cells: E. coli BL21-derived (T7 phage) or HEK-293; test: ROCK2 kinase binding affinity, DiscoverX KINOMEscan KdELECT; conditions: ROCK2 over ROCK1, from Kd values; N/C = not calculated
Sequence (O75116 whole entry): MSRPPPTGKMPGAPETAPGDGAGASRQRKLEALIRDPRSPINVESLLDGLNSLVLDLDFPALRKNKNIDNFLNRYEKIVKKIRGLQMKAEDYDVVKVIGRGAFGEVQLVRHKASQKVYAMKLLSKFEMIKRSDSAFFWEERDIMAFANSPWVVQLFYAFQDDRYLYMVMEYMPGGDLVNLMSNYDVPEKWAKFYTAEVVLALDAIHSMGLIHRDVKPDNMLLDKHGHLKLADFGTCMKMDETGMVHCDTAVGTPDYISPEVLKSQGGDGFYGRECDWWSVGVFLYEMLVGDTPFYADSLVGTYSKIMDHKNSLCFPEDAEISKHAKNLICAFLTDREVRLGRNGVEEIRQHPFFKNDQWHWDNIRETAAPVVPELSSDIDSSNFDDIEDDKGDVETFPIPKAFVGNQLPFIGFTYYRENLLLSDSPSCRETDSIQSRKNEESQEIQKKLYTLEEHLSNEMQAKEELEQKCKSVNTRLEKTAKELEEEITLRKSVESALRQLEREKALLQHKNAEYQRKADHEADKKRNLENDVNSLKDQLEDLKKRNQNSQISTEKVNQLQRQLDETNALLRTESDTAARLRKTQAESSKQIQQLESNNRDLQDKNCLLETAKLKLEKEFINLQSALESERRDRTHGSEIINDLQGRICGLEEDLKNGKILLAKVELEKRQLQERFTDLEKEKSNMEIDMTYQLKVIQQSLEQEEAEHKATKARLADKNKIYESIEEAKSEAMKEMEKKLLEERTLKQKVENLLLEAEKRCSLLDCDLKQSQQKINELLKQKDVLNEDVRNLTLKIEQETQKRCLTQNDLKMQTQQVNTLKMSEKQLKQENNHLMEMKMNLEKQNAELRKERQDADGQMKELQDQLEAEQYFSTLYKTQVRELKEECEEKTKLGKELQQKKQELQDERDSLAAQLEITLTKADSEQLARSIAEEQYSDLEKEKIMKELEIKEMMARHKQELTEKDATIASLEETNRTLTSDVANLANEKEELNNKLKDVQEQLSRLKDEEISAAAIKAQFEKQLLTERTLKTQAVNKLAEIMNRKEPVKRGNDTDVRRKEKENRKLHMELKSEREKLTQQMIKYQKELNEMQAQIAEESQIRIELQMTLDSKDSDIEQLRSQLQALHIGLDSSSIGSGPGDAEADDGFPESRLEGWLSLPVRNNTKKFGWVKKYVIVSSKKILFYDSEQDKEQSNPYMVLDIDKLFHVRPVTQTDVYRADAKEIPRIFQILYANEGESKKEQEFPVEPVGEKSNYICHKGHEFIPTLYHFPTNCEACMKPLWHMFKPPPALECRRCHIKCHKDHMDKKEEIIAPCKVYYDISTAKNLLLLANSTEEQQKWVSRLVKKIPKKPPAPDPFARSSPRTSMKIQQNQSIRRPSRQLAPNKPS
Counter-ions that a name gives are not always drawn.
Measured ROCK 2 Selectivity of individual entries
readout.name: ROCK 2 Selectivity

> print(dat)
                                   compound        readout.name  readout.relation  experimental.result
1  C(#Cc1ccnc(-c2ccnc(N3CCC(c4ccccc4)C3)n2)n1)c1ccc2[nH]ncc2c1 (centres unmarked) [Ex. 69]  ROCK 2 Selectivity                 =                 36.2
2  COCCOc1cc2c(cn1)CN(c1nccc(-c3nccc(C#Cc4ccc5[nH]ncc5c4)n3)n1)C2 [Ex. 37]  ROCK 2 Selectivity                 =                 51.8
3  CN(C)CCOc1ccc2c(c1)CN(c1nccc(-c3cccc(C#Cc4ccc5[nH]ncc5c4)n3)n1)C2 [Ex. 22]  ROCK 2 Selectivity                 >                   20
4  Fc1ccc(C2CCN(c3nccc(-c4nccc(C#Cc5ccc6[nH]ncc6c5)n4)n3)C2)cc1 (centres unmarked) [Ex. 71]  ROCK 2 Selectivity                 =                 36.1
5  CCCN1CCN(c2nccc(-c3nccc(C#Cc4ccc5[nH]ncc5c4)n3)n2)CC1 [Ex. 54, trifluoroacetate]  ROCK 2 Selectivity                 =                 10.2
6  Fc1ccc2c(c1)CN(c1nccc(-c3nccc(C#Cc4cnc5[nH]ncc5c4)n3)n1)C2 [Ex. 32]  ROCK 2 Selectivity                 >                  103
7  Clc1ccc(C2CN(c3nccc(-c4nccc(C#Cc5ccc6[nH]ncc6c5)n4)n3)C2)cc1 [Ex. 57]  ROCK 2 Selectivity                 =                 30.5
8  C(#Cc1ccnc(-c2ccnc(N3Cc4ccc(OCCN5CCOCC5)cc4C3)n2)n1)c1ccc2[nH]ncc2c1 [Ex. 42]  ROCK 2 Selectivity                 =                 7.71

---

target: ROCK1 (Homo sapiens, UniProt Q13464); construct: purchased DiscoverX (KINOMEscan KdELECT service); host or cells: E. coli BL21-derived (T7 phage) or HEK-293; assay: ROCK1 kinase binding affinity, DiscoverX KINOMEscan KdELECT; conditions: equilibrium dissociation constant, 11-point 3-fold dilution series
Sequence (Q13464 whole entry): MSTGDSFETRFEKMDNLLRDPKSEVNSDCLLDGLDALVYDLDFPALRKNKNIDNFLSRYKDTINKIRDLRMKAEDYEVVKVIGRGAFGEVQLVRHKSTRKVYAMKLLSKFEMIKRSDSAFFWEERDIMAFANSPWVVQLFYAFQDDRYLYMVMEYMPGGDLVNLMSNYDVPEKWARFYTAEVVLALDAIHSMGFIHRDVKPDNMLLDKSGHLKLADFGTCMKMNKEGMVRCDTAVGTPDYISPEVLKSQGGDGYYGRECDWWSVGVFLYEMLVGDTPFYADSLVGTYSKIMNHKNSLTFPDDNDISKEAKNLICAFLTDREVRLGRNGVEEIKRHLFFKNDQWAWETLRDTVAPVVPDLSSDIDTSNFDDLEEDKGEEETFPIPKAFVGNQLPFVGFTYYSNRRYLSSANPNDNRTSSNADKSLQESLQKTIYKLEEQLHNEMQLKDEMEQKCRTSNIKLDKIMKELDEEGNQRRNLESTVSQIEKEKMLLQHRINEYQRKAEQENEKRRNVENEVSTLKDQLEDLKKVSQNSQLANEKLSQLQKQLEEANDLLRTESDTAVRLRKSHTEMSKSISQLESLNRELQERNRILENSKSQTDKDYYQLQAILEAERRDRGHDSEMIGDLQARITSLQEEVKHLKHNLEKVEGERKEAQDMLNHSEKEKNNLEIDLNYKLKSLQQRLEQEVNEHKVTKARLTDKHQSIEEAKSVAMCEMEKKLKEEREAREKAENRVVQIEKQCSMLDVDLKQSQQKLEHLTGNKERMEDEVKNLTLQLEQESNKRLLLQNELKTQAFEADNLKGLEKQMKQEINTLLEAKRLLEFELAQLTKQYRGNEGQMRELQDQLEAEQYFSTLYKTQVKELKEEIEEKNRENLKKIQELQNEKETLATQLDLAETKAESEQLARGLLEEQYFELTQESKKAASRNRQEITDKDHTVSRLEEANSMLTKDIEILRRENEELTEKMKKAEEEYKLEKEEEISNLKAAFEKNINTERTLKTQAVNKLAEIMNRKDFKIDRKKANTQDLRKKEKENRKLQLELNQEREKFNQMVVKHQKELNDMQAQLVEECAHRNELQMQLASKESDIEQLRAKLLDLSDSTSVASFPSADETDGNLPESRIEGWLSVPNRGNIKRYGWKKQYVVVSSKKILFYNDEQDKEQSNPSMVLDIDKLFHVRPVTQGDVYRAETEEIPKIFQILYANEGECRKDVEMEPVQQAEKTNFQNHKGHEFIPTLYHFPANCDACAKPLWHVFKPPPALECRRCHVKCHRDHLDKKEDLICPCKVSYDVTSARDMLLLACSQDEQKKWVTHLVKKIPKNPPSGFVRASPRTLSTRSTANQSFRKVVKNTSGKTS
Kd by entry:
readout.name: Kd (µM)

> print(dat)
                                   compound                         tested.target  readout.relation  experimental.result
1  Cc1nnc2n1CCN(c1nccc(-c3nccc(C#Cc4ccc5[nH]ncc5c4)n3)n1)C2 [Ex. 64]  ROCK1 (Homo sapiens, UniProt Q13464)                 =                  3.4
2  COc1ccc2c(c1)CN(c1nccc(-c3nccc(C#Cc4ccc(C#N)cc4)n3)n1)C2 [Ex. 9]  ROCK1 (Homo sapiens, UniProt Q13464)                 >                   30
3  CN(C)CCOc1ccc2c(c1)CN(c1nccc(-c3nccc(C#Cc4ccc5[nH]ncc5c4)n3)n1)C2 [Ex. 39]  ROCK1 (Homo sapiens, UniProt Q13464)                 =                 0.67
4  COc1ccc2c(c1)CN(c1nccc(-c3nccc(C#Cc4cn[nH]c4)n3)n1)C2 [Ex. 2]  ROCK1 (Homo sapiens, UniProt Q13464)                 >                   30
